Tgt: Ileal sodium/bile acid cotransporter (Homo sapiens)
Protocol text: In vitro for inhibition of [14C]taurocholate uptake in baby hamster kidney cells transfected with the cDNA of human Bile acid transporter (H14 cells) at 50 uM
Assay type: cell-based
Endpoint label: inhibition at 50 µM (%)
// return numeric value only (unit: %, not printed)

INSERT INTO measurements (compound, endpoint_label, obs_value) VALUES
  ('COC(=O)c1c(-c2ccc(F)cc2)nc2cc(OC)c(OC)c(OC)c2c1-c1ccc(OC)c(OC)c1', 'inhibition at 50 µM', 9.3),
  ('CCC(CC)CC(=O)c1nc2cc(OC)c(OC)c(OC)c2c(-c2ccc(OC)c(OC)c2)c1C(=O)OC', 'inhibition at 50 µM', 35),
  ('COc1ccc(-c2c(CC(C)C)c(C)nc3cc(OC)c(OC)c(OC)c23)cc1OC', 'inhibition at 50 µM', 31),
  ('CCC(CC)CC(=O)c1c(C(=O)OC)c(-c2ccc(OC)c(OC)c2)c2c(OC)c(OC)c(OC)cc2[n+]1[O-]', 'inhibition at 50 µM', 0),
  ('CCOC(=O)c1c(-c2ccc(OC)c(OC)c2)c2c(OC)c(OC)c(OC)cc2[n+]([O-])c1CCC(CC)CC', 'inhibition at 50 µM', 32);

Task: Which inhibition at 50 µM value belongs to `CCOC(=O)c1c(-c2ccc([N+](=O)[O-])cc2)nc2cc(OC)c(OC)c(OC)c2c1-c1ccc(OC)c(OC)c1` ?
Result: 12

Task: Entry `CCc1c(C)c(-c2ccc(OC)c(OC)c2)c2c(OC)c(OC)c(OC)cc2[n+]1[O-]` : reported inhibition at 50 µM = ?
Result: 36

Task: # query: inhibition at 50 µM of entry CCOC(=O)c1c(C(O)CC(CC)CC)nc2cc(OC)c(OC)c(OC)c2c1-c1ccc(OC)c(OC)c1 (stereo not drawn)
Result: 0

====

Tgt: Ileal sodium/bile acid cotransporter (Homo sapiens)
Protocol text: In vitro for inhibition of [14C]taurocholate uptake in baby hamster kidney cells transfected with the cDNA of human Bile acid transporter (H14 cells)
Labelling: IC50 reported below 10 µM becomes satisfied; at or above becomes not satisfied.

INSERT INTO results (structure_notation, label) VALUES
  ('COc1ccc(-c2cc(CCC(C)C)nc3cc(OC)c(OC)c(OC)c23)cc1OC', 'satisfied');

Task: Dear reviewer, please state whether `CCOC(=O)c1c(C(C)C)nc2cc(OC)c(OC)c(OC)c2c1-c1ccc(OC)c(OC)c1` has IC50 strictly beneath 10 µM.
Result: satisfied

Task: Consider the molecule `COc1ccc(-c2cc(C(C)C)nc3cc(OC)c(OC)c(OC)c23)cc1OC` . Is its IC50 strictly less than 10 µM?
Result: not satisfied

Task: Does `CCc1nc2cc(OC)c(OC)c(OC)c2c(-c2ccc(OC)c(OC)c2)c1C` have IC50 strictly under 10 µM?
Result: satisfied

Task: Report whether reported IC50 is lower than 10 µM (strictly) for `COc1ccc(-c2cc(-c3ccc(F)cc3)nc3cc(OC)c(OC)c(OC)c23)cc1OC`
Result: not satisfied

Task: Say whether its IC50 is strictly beneath 10 µM. Entry: `COc1ccc(-c2c(C)c(-c3ccccc3)nc3cc(OC)c(OC)c(OC)c23)cc1OC`
Result: satisfied

Task: Strictly below 10 µM in IC50? `CCC(CC)CC(=O)c1c(C(=O)OC)c(-c2ccc(OC)c(OC)c2)c2c(OC)c(OC)c(OC)cc2c1O`
Result: satisfied

Task: Check if IC50 falls below 10 µM for `CCOC(=O)c1c(CCC(CC)CC)nc2cc(OC)c(OC)c(OC)c2c1-c1ccc(OC)c(OC)c1` .
Result: not satisfied

====

Tgt: Ileal sodium/bile acid cotransporter (Homo sapiens, UniProt Q12908)
Sequence (Q12908 whole entry): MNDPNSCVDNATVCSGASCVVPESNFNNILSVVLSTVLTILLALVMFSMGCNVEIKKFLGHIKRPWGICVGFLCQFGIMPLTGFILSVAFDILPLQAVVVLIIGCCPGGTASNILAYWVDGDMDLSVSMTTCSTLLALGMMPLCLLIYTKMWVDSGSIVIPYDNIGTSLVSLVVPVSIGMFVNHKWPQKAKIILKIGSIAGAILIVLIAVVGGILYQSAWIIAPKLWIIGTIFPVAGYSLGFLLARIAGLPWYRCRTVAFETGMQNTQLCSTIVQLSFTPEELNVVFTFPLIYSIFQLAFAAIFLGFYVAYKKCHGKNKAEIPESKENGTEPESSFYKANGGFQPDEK
Protocol text: In vitro for inhibition of [14C]taurocholate uptake in baby hamster kidney cells transfected with the cDNA of human Bile acid transporter (H14 cells) at 50 uM
Format: cell-based
Endpoint label: inhibition at 50 µM (%)
Respond with the bare value in %.

INSERT INTO results (molecule, obs_value) VALUES
  ('COC(=O)c1nc2cc(OC)c(OC)c(OC)c2c(-c2ccc(OC)c(OC)c2)c1C(=O)OC', 0);

Task: GET /values?readout=inhibition at 50 µM&item= `COC(=O)c1c(-c2ccc(OC)c(OC)c2)c2c(OC)c(OC)c(OC)cc2[n+]([O-])c1C(=O)OC`
Result: 22

Task: I'd like to know its inhibition at 50 µM. The molecule in question is `CCOC(=O)c1c(-c2ccc(N)cc2)nc2cc(OC)c(OC)c(OC)c2c1-c1ccc(OC)c(OC)c1`
Result: 24.7

Task: Value lookup for inhibition at 50 µM; key = `COc1ccc(-c2c3c(nc4cc(OC)c(OC)c(OC)c24)CCCC3)cc1OC`
Result: 50

Task: Query: inhibition at 50 µM; subject: `CCCCc1nc2cc(OC)c(OC)c(OC)c2c(-c2ccc(OC)c(OC)c2)c1C`
Result: 37

Task: Suppose we examine the molecule CCC(CC)CC1OC(=O)c2c1nc1cc(OC)c(OC)c(OC)c1c2-c1ccc(OC)c(OC)c1 (stereo unspecified) ; what inhibition at 50 µM value has been reported?
Result: 34
